Assay remarks: yeast display, Sf9 membrane polyspecificity reagent, FACS + sequencing; frameworks hold sequencing errors
Endpoint name: polyreactivity (PSR sort gate)

- Sequence: "QVQVVESGGGLVQAGGSLGLSCAASGGTFGYYAMGWYRQAPGKERELVAAINRSDGGTYYADSVKGRFTISRDKAKNTVYLQMTSLKPEDTAVYYCNADDFYYDEPYDYWGQGTQVTVSS"
  polyreactivity (PSR sort gate): "low polyreactivity"
- Sequence: "QVQLVESGGCLVQAGGSLRLSCDASGIIFRGNAMGWYRHAPGTERELVAAISSAGSTNYSDSVKGRFTISRDNAKNTVYLQMNSLKPEDTAVYYCAKGSIKYHVTLRGRGYYWGQGTQVTVSS"
  polyreactivity (PSR sort gate): "low polyreactivity"
- Sequence: "QVQLVESGGGLVQAGGSLRLSCAASGFILYYYAMGWYRQAPGKERELVAAISSGGNTDYADSVKGRFTISRDNAKNTVYLQMNSLKPEDTAVYYCAARGYHYSYLRGDTGYYYWGQGTQVTVSS"
  polyreactivity (PSR sort gate): "low polyreactivity"
- Sequence: "QVQLVESGGGLVQAGGSLRLSCAASGFIFWRYAMGWYRQAPGKERELVASITSTGGSTYYADSVKGRFTISRDNAKNTVYLQMNSLKPEDTAVYYCAADTFVWADWSWHYYWGQGTQVTVSS"
  polyreactivity (PSR sort gate): "high polyreactivity"
- Sequence: "QVQLVESGGGLVQAGGSLRLSCAASGSTFKKNAMGWYRQAPGKERELVAAISGIGTRTSYADSVKGRFTISRDNAKNTVYLQMNSLKPEDTAVYYCAARYYGFPSTLKYDYWGQGTQVTVSS"
  polyreactivity (PSR sort gate): "high polyreactivity"

// fetch polyreactivity (PSR sort gate) given entry `QVQLVESGGGLVQAGGSLRLSCAASGSTIYLYAMGWSRPAPGKERVLVAAIRGRGGRTYYADSVKGRFTISSDNAKNTVYLKMNSLKPEDTAVYYCNADVYAYYRATTRFDYWGQGTQVTVSS`
high polyreactivity

Please give the documented polyreactivity (PSR sort gate) of `QVQLVESGGGLGQAGGSLRLSCAASGITFRSYAMGWYRQAPGKERELVATISWSGGITYYADSVKGRFTISRDNAKNTVYLQMNSLKPEDTAVYYCAKASQSWGPDDYYYWGQGTQVTVSS`
low polyreactivity

----------
Assay remarks: yeast display, Sf9 membrane polyspecificity reagent, FACS + sequencing; frameworks hold sequencing errors
Endpoint name: polyreactivity (PSR sort gate)

Observe how each entry below is paired with its result.
- Sequence: "QVQMQESGGGLVQAGGTLRLSCAASGSFSADEDMGWYRQAQGKEREFVAGISVGGNTNYADSVKGRFTISRENAKNTVYLQINSLKPEDTAVYYCAVLQDVYDALDYWAQGTQVTVSS"
  polyreactivity (PSR sort gate): "high polyreactivity"
- Sequence: "QVQLVDSGGGLVQAGGSLRLSCSASGIIIKWYTMVWYRQAPGKEREFVAAISYGGGSTSYADSVKGRFTISRDNAKNTVYLQMNSLKPEDTAVYYCAVVWQGAYSRTNYYYWGQGTQVTVSS"
  polyreactivity (PSR sort gate): "low polyreactivity"
- Sequence: "EVQLVESVGGLVHAGGSLGLSFAASGSIFDRNAMGWYRQAPGKERELVAAISVSGGSTYYADSVKGRFTISRDNAKNTVYLQMNSLKPEDTAVYYCDKAGRYANLPYGYWGHGTQVTVSS"
  polyreactivity (PSR sort gate): "high polyreactivity"
- Sequence: "QVQLVESGGGLVQAGGSLRLSCAASGNIFPYYAMGWYRQAPGKERELVASITWSGGRTYYADSVKGRFTISRDNAKNTVYLQMNSLKPEDTAVYYCAKEHHRTGQGRDYDYWGQGTQVTVSS"
  polyreactivity (PSR sort gate): "low polyreactivity"

Please report polyreactivity (PSR sort gate) for the following sequence: `QVQLVESGGGLVQAGGSLRLSCAASGFTFLIYAMGWYRQAPGKERELVAAITWRGSGTYYADSVKGRFTLSRDNAKNTVYLQMNSLKPEDTAVYYCAARTARRTFDYWGQGTQVTVSS`
low polyreactivity
